Biological target: Mitogen-activated protein kinase kinase kinase 5 (Homo sapiens, UniProt Q99683)
Sequence (Q99683 whole entry): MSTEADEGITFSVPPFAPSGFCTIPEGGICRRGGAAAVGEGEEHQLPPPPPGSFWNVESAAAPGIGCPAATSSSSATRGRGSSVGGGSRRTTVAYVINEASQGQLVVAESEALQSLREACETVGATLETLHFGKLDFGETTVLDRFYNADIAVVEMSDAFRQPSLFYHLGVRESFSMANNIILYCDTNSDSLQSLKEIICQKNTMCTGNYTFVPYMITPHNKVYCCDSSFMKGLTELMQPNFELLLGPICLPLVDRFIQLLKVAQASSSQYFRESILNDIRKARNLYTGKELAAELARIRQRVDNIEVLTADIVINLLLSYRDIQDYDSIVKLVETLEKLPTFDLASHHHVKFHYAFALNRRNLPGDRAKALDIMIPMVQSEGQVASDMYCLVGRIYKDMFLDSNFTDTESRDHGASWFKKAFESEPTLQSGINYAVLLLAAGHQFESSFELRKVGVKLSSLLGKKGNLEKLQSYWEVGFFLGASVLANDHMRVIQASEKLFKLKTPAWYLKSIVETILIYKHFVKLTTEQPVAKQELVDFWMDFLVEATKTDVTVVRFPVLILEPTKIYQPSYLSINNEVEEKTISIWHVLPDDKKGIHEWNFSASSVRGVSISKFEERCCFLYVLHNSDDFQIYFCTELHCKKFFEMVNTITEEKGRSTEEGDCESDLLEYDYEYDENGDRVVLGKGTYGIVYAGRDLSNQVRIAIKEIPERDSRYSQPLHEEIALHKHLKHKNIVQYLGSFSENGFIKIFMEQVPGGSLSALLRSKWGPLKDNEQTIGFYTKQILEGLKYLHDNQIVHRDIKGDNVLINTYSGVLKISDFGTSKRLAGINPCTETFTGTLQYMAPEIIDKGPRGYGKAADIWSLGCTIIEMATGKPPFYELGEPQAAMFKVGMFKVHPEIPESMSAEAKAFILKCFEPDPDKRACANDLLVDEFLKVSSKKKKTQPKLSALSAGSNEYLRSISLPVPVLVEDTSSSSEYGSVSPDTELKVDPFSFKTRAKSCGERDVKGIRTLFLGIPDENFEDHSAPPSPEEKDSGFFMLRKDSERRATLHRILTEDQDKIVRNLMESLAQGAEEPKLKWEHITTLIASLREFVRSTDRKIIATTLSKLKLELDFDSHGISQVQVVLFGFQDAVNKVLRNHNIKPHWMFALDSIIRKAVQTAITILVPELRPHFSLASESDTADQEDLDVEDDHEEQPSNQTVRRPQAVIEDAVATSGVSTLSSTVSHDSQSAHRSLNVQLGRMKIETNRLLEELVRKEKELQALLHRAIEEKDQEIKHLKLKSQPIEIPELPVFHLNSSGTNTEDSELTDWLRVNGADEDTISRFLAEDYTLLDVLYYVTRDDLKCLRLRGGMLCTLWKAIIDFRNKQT
Test: Inhibition of human recombinant ASK1 (649 to 946 residues) using myelin as substrate incubated for 40 mins in presence of [gamma-33ATP] by radiometric scintillation counting analysis
pIC50: −log10 of the molar value.
recorded.metric: pIC50

# smiles.text, target, observed.measurement
measured = [
    ("CN(C)c1ccc(C(=O)Nc2cccc(NC(=O)COc3ccc4c(=O)ccoc4c3)c2)cc1", "Mitogen-activated protein kinase kinase kinase 5 (Homo sapiens, UniProt Q99683)", "< 5.00"),
]

---

biological target: Dual specificity tyrosine-phosphorylation-regulated kinase 1A (Homo sapiens, UniProt Q13627); assay: Inhibition of recombinant full length human DYRK1A using RRRFRPASPLRGPP as substrate after 40 mins in presence of [gamma-33ATP] by radiometric scintillation counting analysis

# smiles.text, IC50
measured = [
    ("CN(C)c1ccc(C(=O)Nc2cccc(NC(=O)COc3ccc4c(=O)ccoc4c3)c2)cc1", "> 10 µM"),
]

---

target: Serine/threonine-protein kinase PLK2 (Homo sapiens, UniProt Q9NYY3); test: Inhibition of recombinant human SNK (65 to 409 residues) using casein as substrate incubated for 40 mins in presence of [gamma33P]ATP by radiometric scintillation counting analysis
Sequence (Q9NYY3 whole entry, the tested form may be a part): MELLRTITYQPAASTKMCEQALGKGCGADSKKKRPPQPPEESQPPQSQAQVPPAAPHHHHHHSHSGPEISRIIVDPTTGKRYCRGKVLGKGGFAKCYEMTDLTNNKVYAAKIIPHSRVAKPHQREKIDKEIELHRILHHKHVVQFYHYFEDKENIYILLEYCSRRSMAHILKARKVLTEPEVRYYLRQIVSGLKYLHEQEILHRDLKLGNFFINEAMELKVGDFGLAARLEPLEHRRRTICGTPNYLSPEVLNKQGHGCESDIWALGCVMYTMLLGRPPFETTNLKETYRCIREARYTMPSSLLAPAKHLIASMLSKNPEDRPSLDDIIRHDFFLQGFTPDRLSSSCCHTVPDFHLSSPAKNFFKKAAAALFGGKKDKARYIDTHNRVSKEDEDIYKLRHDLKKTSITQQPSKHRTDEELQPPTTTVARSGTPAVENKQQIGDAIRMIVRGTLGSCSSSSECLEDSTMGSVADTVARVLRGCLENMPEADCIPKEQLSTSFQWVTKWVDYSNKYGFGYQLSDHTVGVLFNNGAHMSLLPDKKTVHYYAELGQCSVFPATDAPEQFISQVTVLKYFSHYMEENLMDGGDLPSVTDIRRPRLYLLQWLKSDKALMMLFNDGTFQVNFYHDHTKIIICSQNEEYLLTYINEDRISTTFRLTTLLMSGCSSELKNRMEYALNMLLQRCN
pIC50: −log10 of the molar value.
recorded.metric: pIC50

# smiles.text, observed.measurement
records = [
    ("CN(C)c1ccc(C(=O)Nc2cccc(NC(=O)COc3ccc4c(=O)ccoc4c3)c2)cc1", "< 5.00"),
]

---

molecular target: Epidermal growth factor receptor (Homo sapiens, UniProt P00533, L858R/T790M); test: Inhibition of recombinant human EGFR T790M/L858R double mutant (696 to end residues) using poly(Glu, Tyr) 4:1 as substrate after 40 mins in presence of [gamma-33ATP] by radiometric scintillation counting analysis
Sequence (P00533 25-1210 T790M/L858R limits assumed): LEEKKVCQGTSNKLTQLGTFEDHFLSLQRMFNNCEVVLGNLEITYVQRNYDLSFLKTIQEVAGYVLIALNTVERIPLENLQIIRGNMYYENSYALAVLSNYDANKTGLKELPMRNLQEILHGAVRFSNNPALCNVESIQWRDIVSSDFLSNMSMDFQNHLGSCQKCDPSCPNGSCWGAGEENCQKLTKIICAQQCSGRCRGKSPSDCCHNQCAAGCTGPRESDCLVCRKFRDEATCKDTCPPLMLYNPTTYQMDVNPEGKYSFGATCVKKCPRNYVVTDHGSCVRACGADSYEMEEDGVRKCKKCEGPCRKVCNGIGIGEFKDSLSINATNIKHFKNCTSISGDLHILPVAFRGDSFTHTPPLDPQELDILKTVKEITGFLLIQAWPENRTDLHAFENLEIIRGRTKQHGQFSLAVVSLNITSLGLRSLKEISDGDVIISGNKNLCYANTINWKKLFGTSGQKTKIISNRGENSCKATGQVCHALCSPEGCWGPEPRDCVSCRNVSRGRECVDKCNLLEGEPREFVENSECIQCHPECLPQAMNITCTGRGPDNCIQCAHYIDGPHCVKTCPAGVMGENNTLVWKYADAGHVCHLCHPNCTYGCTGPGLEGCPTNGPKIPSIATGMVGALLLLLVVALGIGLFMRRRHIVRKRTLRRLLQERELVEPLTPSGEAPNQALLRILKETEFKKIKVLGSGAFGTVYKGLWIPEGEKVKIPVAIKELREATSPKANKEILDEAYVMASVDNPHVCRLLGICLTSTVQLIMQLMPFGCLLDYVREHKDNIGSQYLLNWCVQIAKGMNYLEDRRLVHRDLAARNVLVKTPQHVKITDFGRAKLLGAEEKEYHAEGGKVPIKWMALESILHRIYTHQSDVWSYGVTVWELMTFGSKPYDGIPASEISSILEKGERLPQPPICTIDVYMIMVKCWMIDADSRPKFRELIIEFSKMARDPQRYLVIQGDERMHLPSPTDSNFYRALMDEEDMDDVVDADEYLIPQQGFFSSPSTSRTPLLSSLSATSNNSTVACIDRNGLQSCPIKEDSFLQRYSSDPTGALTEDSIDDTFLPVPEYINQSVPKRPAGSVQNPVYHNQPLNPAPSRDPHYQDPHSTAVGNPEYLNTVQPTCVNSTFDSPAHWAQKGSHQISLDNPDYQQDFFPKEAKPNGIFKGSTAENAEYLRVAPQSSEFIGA
pIC50: −log10 of the molar value.
recorded.metric: pIC50

# smiles.text, observed.measurement
measured = [
    ("CN(C)c1ccc(C(=O)Nc2cccc(NC(=O)COc3ccc4c(=O)ccoc4c3)c2)cc1", "< 5.00"),
]

---

assay: Intrinsic clearance in rat liver microsomes measured upto 45 mins in presence of NADPH by LC-MS analysis; assay type: ADME, Microsome; conditions: read-out: CLH
recorded.metric: CLint scaled (mL/min/kg)

# smiles.text, observed.measurement
rows = [
    ("CN(C)c1ccc(C(=O)Nc2cccc(NC(=O)COc3ccc4c(=O)ccoc4c3)c2)cc1", 2260),
]

---

biological target: Serine/threonine-protein kinase DCLK3 (Homo sapiens); experiment: Inhibition of recombinant human DCAMKL3 (345 to end residues) using KKLNRTLSFAEPG as substrate after 40 mins in presence of [gamma-33ATP] by radiometric scintillation counting analysis
Sequence (Q9C098 whole entry): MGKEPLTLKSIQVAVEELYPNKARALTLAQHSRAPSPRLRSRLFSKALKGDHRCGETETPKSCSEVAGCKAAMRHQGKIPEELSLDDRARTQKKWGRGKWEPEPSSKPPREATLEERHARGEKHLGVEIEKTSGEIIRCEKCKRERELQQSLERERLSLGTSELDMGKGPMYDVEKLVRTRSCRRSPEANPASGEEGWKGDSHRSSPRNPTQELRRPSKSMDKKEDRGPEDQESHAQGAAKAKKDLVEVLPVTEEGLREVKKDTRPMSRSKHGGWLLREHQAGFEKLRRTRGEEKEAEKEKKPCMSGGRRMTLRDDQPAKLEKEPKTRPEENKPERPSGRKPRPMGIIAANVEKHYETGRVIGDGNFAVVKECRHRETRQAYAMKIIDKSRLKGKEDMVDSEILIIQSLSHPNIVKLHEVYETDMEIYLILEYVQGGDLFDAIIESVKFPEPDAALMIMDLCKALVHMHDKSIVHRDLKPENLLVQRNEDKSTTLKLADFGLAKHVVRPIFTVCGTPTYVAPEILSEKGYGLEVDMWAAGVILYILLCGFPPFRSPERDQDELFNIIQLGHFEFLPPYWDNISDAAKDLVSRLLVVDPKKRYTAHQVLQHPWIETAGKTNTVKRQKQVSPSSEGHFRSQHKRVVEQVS
pIC50: −log10 of the molar value.

# smiles.text, pIC50
rows = [
    ("CN(C)c1ccc(C(=O)Nc2cccc(NC(=O)COc3ccc4c(=O)ccoc4c3)c2)cc1", "< 5.00"),
]

---

molecular target: Rhodopsin kinase GRK1 (Homo sapiens, UniProt Q15835); assay: Inhibition of recombinant full length human GRK1 using KKKKERLLDDRHD as substrate after 40 mins in presence of [gamma-33ATP] by radiometric scintillation counting analysis
Sequence (Q15835 whole entry): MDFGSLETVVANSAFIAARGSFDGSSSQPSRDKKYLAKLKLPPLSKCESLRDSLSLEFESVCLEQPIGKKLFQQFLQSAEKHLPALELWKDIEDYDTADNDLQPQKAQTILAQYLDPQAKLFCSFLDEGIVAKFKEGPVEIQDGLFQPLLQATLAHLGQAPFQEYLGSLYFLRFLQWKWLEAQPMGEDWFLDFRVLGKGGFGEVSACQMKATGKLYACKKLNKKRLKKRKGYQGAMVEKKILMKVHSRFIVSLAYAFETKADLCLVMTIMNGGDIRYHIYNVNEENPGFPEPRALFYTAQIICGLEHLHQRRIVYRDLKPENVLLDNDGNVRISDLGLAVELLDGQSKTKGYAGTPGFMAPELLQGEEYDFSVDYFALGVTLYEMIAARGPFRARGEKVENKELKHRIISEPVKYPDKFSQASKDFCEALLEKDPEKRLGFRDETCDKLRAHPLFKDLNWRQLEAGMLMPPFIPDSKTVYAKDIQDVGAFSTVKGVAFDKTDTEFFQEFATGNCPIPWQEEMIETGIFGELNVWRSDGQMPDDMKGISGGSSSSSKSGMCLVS
pIC50: −log10 of the molar value.
recorded.metric: pIC50

# smiles.text, observed.measurement
rows = [
    ("CN(C)c1ccc(C(=O)Nc2cccc(NC(=O)COc3ccc4c(=O)ccoc4c3)c2)cc1", "< 5.00"),
]

---

target: Casein kinase II subunit alpha (Homo sapiens); assay: Inhibition of recombinant full length human CK2alpha1 using RRRDDDSDDD as substrate incubated 40 mins in presence of [gamma-33ATP] by radiometric scintillation counting analysis
Sequence (P68400 whole entry): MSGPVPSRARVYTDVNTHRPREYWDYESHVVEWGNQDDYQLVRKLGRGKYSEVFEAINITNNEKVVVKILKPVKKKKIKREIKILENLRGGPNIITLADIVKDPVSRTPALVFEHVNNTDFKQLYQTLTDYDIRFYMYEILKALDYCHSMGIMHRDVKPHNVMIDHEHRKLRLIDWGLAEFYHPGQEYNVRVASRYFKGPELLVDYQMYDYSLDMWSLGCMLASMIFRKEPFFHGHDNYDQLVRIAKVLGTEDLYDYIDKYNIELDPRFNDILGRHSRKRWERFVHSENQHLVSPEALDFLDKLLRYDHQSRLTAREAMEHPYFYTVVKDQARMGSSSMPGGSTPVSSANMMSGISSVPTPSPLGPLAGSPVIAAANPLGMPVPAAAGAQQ
pIC50: −log10 of the molar value.
recorded.metric: pIC50

# smiles.text, observed.measurement
rows = [
    ("CN(C)c1ccc(C(=O)Nc2cccc(NC(=O)COc3ccc4c(=O)ccoc4c3)c2)cc1", "< 5.00"),
]

---

biological target: Mitogen-activated protein kinase 14 (Homo sapiens, UniProt Q16539, T106M); experiment: Inhibition of recombinant human full length SAPK2a T106M mutant using myelin basic protein as substrate incubated for 40 mins in presence of [gamma33P]ATP by radiometric scintillation counting analysis
Sequence (Q16539 2-360 T106M limits assumed): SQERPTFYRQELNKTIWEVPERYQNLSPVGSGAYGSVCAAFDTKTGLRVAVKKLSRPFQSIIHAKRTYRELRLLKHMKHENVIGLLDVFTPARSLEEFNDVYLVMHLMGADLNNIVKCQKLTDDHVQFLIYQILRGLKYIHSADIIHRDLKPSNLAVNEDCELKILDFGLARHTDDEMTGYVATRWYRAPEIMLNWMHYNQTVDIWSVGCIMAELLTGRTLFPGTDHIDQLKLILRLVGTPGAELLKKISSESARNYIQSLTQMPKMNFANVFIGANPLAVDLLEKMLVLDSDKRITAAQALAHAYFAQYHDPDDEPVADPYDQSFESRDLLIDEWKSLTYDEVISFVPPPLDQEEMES
recorded.metric: IC50

# smiles.text, observed.measurement
data = [
    ("CN(C)c1ccc(C(=O)Nc2cccc(NC(=O)COc3ccc4c(=O)ccoc4c3)c2)cc1", "> 10 µM"),
]

---

biological target: Tyrosine-protein kinase ABL1 (Homo sapiens, UniProt P00519, T315I); experiment: Inhibition of human recombinant ABL1 T315I mutant (27 to end residues) using EAIYAAPFAKKK as substrate incubated for 40 mins in presence of [gamma-33P]ATP by radiometric scintillation counting analysis
recorded.metric: IC50

# smiles.text, target, recorded.metric, observed.measurement
measured = [
    ("CN(C)c1ccc(C(=O)Nc2cccc(NC(=O)COc3ccc4c(=O)ccoc4c3)c2)cc1", "Tyrosine-protein kinase ABL1 (Homo sapiens, UniProt P00519, T315I)", "IC50", "> 10 µM"),
]

---

molecular target: CDK4/Cyclin D3 (Homo sapiens); assay: Inhibition of recombinant full length human CDK4/CyclinD3 using Rb fragment as substrate incubated for 40 mins in presence of [gamma-33ATP] by radiometric scintillation counting analysis; type: protein-complex assay
Sequence (P11802 whole entry, the tested form may be a part): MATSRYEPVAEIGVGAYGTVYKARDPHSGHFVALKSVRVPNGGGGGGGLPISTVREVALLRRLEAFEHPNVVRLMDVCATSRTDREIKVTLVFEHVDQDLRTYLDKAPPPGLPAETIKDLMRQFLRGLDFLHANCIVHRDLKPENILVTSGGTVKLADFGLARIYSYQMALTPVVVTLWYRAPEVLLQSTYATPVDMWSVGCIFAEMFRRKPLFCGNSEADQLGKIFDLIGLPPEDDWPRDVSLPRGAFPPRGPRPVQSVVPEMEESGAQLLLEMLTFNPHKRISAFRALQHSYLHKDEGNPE
Sequence (P30281 whole entry, further chain, the tested form may be a part): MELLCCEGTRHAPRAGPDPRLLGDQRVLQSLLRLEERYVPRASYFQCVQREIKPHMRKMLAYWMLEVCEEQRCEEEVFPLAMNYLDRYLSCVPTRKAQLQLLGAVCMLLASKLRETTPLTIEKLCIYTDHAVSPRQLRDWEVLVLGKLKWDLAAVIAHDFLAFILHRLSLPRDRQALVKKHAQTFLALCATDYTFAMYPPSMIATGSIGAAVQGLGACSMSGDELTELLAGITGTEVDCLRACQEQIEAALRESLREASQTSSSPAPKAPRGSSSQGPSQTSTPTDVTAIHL

# smiles.text, IC50
records = [
    ("CN(C)c1ccc(C(=O)Nc2cccc(NC(=O)COc3ccc4c(=O)ccoc4c3)c2)cc1", "> 10 µM"),
]

---

biological target: Serine/threonine-protein kinase TAO3 (Homo sapiens, UniProt Q9H2K8); assay: Inhibition of recombinant human TAO3 N47S mutant (1 to 411 residues) using myelin basic protein as substrate incubated for 40 mins in presence of [gamma33P]ATP by radiometric scintillation counting analysis
recorded.metric: IC50

# smiles.text, observed.measurement
records = [
    ("CN(C)c1ccc(C(=O)Nc2cccc(NC(=O)COc3ccc4c(=O)ccoc4c3)c2)cc1", "> 10 µM"),
]

---

Target: Serine/threonine-protein kinase NLK (Homo sapiens, UniProt Q9UBE8)
Sequence (Q9UBE8 whole entry): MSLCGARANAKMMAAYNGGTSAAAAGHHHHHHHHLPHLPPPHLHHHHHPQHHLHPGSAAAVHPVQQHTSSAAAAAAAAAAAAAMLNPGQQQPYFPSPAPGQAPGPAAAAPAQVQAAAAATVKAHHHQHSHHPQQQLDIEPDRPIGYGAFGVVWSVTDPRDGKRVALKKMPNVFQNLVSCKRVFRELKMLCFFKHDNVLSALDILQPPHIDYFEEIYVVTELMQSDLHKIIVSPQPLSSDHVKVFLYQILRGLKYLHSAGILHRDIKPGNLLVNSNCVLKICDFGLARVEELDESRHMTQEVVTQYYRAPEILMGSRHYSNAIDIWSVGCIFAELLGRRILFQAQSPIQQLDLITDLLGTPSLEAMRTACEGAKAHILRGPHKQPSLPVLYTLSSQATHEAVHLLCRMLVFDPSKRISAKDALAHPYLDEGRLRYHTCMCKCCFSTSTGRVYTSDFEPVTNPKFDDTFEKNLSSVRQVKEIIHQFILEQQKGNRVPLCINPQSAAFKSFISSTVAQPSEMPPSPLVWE
Assay: Inhibition of recombinant human NLK (121 to end residues) using protein as substrate measured after 40 mins in presence of [gamma33P]ATP by radiometric scintillation counting analysis
pIC50: −log10 of the molar value.

# smiles.text, target, pIC50
measured = [
    ("CN(C)c1ccc(C(=O)Nc2cccc(NC(=O)COc3ccc4c(=O)ccoc4c3)c2)cc1", "Serine/threonine-protein kinase NLK (Homo sapiens, UniProt Q9UBE8)", "< 5.00"),
]

src = ChEMBL document CHEMBL4376834
